Can you tell me % Collagen Binding for the items I'm about to list?
target desc: human collagen type I (acid soluble, extracted from placenta, Sigma C7774) (human) (UniProt P02452)
Sequence (P02452 162-1218 limits assumed, chain 1 of 2): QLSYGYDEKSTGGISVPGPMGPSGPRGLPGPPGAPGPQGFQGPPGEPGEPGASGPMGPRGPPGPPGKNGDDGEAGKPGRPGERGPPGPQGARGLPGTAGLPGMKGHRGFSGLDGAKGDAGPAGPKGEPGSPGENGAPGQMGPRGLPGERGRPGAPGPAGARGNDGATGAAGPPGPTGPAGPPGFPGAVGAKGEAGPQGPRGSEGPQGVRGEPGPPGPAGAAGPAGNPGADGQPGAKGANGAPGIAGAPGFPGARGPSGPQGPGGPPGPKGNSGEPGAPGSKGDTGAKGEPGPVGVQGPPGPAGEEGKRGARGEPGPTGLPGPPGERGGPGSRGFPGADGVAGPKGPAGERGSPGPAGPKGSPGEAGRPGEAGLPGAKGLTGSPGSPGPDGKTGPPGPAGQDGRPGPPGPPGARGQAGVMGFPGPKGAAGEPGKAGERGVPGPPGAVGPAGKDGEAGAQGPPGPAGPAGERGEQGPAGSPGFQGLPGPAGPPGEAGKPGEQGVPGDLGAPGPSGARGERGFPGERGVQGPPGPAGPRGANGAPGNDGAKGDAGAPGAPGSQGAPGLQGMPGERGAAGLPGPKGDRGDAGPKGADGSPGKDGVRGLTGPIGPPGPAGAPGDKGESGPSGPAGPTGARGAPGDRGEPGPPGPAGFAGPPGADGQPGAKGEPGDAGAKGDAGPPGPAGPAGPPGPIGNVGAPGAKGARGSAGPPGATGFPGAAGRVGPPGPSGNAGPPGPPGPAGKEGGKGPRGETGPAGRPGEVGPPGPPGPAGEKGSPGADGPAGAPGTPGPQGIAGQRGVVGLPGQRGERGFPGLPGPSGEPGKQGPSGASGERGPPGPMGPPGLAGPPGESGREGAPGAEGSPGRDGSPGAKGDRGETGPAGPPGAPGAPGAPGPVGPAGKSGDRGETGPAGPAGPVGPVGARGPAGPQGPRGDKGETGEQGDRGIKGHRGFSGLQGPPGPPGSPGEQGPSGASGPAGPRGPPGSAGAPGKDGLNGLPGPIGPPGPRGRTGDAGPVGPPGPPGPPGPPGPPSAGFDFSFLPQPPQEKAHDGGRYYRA
Sequence (P08123 80-1119 limits assumed, chain 2 of 2, further chain): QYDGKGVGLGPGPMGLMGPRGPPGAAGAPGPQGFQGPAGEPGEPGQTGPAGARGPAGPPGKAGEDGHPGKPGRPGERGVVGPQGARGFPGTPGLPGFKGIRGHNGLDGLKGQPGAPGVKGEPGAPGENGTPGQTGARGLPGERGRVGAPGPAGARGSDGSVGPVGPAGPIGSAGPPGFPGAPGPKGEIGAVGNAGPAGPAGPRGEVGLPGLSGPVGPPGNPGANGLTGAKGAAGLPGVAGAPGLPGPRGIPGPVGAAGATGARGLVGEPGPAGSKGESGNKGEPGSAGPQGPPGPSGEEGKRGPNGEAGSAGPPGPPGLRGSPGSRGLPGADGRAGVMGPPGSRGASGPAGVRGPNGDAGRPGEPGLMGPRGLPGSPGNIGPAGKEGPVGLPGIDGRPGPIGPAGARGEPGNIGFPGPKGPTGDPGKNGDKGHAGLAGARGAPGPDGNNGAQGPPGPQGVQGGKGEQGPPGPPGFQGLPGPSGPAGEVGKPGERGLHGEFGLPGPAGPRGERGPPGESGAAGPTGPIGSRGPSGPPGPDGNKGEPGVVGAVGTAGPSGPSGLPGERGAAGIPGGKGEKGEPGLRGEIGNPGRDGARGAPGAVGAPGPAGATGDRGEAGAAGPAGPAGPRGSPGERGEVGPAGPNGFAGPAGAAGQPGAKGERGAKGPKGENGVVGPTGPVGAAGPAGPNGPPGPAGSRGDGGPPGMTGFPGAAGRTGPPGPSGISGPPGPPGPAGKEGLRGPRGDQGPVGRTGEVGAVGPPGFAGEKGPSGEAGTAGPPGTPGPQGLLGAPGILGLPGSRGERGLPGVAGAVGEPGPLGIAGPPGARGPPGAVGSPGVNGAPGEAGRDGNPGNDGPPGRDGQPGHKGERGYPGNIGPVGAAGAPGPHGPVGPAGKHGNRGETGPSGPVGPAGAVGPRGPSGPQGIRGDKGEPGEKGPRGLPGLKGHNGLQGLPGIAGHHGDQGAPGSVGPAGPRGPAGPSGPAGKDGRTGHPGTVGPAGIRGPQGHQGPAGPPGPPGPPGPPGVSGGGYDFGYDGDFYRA
protocol notes: dried collagen assay
Bridge positions count the residues as written; N and C are the ends. Square brackets hold non-standard residues; d marks the D form. Ends that are not written are not given here.
Please give a number only; it is taken to be in %.

Item under review: PWTCSGDEYAWHCNYE [SEQ ID NO: 121] . Reported % Collagen Binding?
57

Now consider GQWTCSGDE[dY]TWHCNYE (disulfide 5-14 (inferred); not fully specified (C-terminus); printed as Q W T C S G D E y T W H C N Y E) [SEQ ID NO: 171] .
13

Now consider GQWTCSGDEYAWHCNY[dE] (disulfide 5-14 (inferred)) [SEQ ID NO: 126] .
68

Now consider GQWTCSGDEYTW[dH]CNYE (disulfide 5-14 (inferred); not fully specified (C-terminus); printed as Q W T C S G D E Y T W h C N Y E) [SEQ ID NO: 174] .
5

Now consider GQWT[dC]SGDEYTWHCNYE (disulfide 5-14 (inferred)) [SEQ ID NO: 167] .
4

Now consider GQWTCSGD[dE]YTWHCNYE (disulfide 5-14 (inferred)) [SEQ ID NO: 170] .
49

Now consider GQWTCSGDEYTWHC[dN]YE (disulfide 5-14 (inferred); not fully specified (C-terminus); printed as Q W T C S G D E Y T W H C n Y E) [SEQ ID NO: 176] .
2

Now consider DWTCSGDEYAWHCNYE [SEQ ID NO: 120] .
38

Now consider GQWTC[dS]GDEYTWHCNYE (disulfide 5-14 (inferred)) [SEQ ID NO: 168] .
3

Now consider DWTCSSDEYTWHCNYE [SEQ ID NO: 180] .
81

Now consider G[dQ]WTCSGDEYTWHCNYE (disulfide 5-14 (inferred)) [SEQ ID NO: 164] .
46

Now consider DWTCSRDEYTWHCNYE [SEQ ID NO: 181] .
87
